tgt: human α1G T-type channels (Homo sapiens)
Construct: expressed in transfected cells; host or cells: HEK 293
Sequence (O43497 whole entry): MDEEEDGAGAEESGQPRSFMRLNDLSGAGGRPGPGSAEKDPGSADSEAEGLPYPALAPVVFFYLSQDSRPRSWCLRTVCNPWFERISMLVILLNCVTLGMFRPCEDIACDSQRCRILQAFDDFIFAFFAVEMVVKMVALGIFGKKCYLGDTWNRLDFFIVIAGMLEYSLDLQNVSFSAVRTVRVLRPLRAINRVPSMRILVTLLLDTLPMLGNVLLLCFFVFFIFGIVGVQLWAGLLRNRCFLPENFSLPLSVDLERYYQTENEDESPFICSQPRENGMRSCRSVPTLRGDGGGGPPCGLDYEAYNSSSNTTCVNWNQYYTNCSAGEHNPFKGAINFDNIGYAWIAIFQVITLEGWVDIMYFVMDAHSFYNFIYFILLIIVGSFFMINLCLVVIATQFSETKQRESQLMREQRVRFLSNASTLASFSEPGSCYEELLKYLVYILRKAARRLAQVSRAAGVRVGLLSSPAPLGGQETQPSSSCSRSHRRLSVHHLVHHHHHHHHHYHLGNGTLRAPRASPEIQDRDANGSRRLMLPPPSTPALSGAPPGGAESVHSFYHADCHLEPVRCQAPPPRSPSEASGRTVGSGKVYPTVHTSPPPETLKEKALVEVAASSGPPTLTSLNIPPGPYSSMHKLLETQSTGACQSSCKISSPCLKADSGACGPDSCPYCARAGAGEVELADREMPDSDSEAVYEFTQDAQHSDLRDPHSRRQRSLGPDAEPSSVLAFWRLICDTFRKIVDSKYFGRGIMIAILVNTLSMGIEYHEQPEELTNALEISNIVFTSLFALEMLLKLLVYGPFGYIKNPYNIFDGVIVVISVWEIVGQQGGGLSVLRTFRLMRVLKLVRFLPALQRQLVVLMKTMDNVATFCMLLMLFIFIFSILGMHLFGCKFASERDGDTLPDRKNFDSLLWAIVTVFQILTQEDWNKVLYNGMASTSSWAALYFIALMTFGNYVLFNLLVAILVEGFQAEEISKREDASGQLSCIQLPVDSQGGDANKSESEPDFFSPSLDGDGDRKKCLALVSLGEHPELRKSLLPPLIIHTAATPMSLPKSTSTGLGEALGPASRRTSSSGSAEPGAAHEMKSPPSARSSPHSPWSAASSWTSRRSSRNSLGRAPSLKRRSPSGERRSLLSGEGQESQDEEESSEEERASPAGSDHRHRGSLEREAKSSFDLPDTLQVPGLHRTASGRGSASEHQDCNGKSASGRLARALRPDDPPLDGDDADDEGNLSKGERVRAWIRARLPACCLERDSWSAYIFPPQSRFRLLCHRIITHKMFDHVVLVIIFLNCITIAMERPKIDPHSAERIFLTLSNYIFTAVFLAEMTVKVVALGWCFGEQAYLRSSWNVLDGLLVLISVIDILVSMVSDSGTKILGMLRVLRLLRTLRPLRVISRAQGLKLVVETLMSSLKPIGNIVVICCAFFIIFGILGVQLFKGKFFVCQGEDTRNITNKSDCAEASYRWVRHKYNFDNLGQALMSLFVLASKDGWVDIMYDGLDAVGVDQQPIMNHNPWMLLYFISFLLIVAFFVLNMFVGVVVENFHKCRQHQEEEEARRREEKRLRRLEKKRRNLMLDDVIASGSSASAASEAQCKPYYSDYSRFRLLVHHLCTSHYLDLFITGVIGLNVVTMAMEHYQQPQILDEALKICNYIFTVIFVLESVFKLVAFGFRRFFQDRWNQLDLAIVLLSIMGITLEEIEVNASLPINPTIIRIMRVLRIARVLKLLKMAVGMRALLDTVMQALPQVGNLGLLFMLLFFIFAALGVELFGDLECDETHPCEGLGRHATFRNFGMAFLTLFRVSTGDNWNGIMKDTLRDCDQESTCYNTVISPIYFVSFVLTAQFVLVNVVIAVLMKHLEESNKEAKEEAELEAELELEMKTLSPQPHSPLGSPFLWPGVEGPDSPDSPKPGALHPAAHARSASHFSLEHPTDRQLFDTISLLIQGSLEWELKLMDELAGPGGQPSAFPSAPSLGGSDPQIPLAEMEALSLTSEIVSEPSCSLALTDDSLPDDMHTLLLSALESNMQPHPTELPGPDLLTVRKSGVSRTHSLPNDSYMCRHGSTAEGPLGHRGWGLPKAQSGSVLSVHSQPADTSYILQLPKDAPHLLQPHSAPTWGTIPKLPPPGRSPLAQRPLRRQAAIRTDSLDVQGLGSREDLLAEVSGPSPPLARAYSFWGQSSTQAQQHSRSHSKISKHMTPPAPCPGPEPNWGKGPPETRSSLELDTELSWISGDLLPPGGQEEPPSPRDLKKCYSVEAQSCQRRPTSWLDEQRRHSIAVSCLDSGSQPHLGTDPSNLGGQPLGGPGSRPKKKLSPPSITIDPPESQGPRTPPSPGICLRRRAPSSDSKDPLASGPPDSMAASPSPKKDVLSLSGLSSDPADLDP
assay explanation: T-type calcium channel block, whole cell patch clamp in HEK cells (α1G)
Format: cell-based
setup conditions: HEK cells, patch clamp, mainly non-inactivated protocol; values above 10 μM shown as 10 μM, below 0.30 μM shown as 0.30 μM; read-out: T-type Calcium Channel Block α1G IC50
pIC50: −log10 of the molar value.
pIC50 below 6 gives Not fulfilled; pIC50 at or above it gives Fulfilled.

[[record]]
compound = "O=C(NCC1CCN(CCNC(=O)C2CCCC2)CC1)c1cc(F)cc(Cl)c1 [Compound 397]"
label_class = "Not fulfilled"

[[record]]
compound = "NC1(C(=O)NCCN2CCC(CNC(=O)c3cc(F)cc(C(F)(F)F)c3)CC2)CCCCC1 [Compound 570]"
label_class = "Not fulfilled"

[[record]]
compound = "O=C(NCC1CCN(C[C@@H]2CCCN2S(=O)(=O)C2CCC2)CC1)c1cc(F)cc(C(F)(F)F)c1 [Compound 419]"
label_class = "Not fulfilled"

[[record]]
compound = "COc1cc(Cl)cc(C(=O)NCC2CCN(CCNS(=O)(=O)C(F)(F)F)CC2)c1 [Compound 326]"
label_class = "Not fulfilled"

[[record]]
compound = "O=C(NCC1CCN(CCNS(=O)(=O)C2CC2)CC1)c1cccc(C(F)(F)F)c1 [Compound 228]"
label_class = "Not fulfilled"

[[record]]
compound = "CC(C)COC(=O)NC(CN1CCC(CC(=O)NCc2cc(Cl)cc(Cl)c2)CC1)C(C)(C)C (centres unmarked) [Compound 225]"
label_class = "Fulfilled"

[[record]]
compound = "O=C(CCC(F)(F)F)NCCN1CCC(CNC(=O)c2cccc(C(F)(F)F)c2)CC1 [Compound 313]"
label_class = "Not fulfilled"

[[record]]
compound = "CCCCCNCC(=O)N1CCC(CNC(=O)c2cc(C(F)(F)F)cc(C(F)(F)F)c2)CC1 [Compound 241]"
label_class = "Fulfilled"

